These data points were gathered from PubChem BioAssay AID651789.

Assay: Acumen qHTS Assay for Inhibitors of the mTORC1 Signaling Pathway in WT MEF Cells: Hit Validation; further: nearly all actives have a fitted effect of over 60% in size
Settings: Acumen imaging; series mostly up to 37.3 µM
Records with an inconclusive call do not appear. Calls of active or inactive are those of the source. The call rests on the fitted dose curve; in most records, active means well fitted inhibition curve with a large enough effect; inconclusive means small, poorly fitted or top-dose-only effect; inactive means no such curve, though single readings can be large or run the other way.
Choose one outcome from this list and give only that: true (1) = active, false (0) = inactive

COMPOUND | CLASS NAME
O=C(Nc1ccon1)c1cccn(Cc2cccc(Cl)c2)c1=O | false (0)
Cc1ccccc1-n1c(/C=C/c2ccccc2F)nc2ccccc2c1=O | false (0)
Cc1cccc(CN2CCc3nc(N4CCN(c5ccccn5)CC4)ncc3C2)c1 | false (0)
CN[C@@H]1C[C@@]2(C)O[C@@H]([C@@H]1OC)n1c3ccccc3c3c4c(c5c6ccccc6n2c5c31)C(=O)NC4 | true (1)

Prompt: Hi, sorry to bother you, what did the test record for `Cc1ccc(-n2c(/C=C/c3ccc(Br)s3)nc3ccccc3c2=O)cc1C` ?
Completion: false (0)

Prompt: One more compound: `CCN(CC)C(=O)c1ccc(NC(=O)CCn2nc(-c3ccc(C)cc3)c3ccccc3c2=O)cc1`
Completion: false (0)

Prompt: Another: `CCOc1ccc(CN(CCc2ccc3c(c2)OCO3)Cc2ccc(C)cc2)cc1`
Completion: false (0)

Prompt: Also CCOc1ccc(N(C(C)C(=O)Nc2cc(Cl)ccc2OC)S(C)(=O)=O)cc1 (configuration not stated) , if possible.
Completion: true (1)

Prompt: Next up: `Cc1ccccc1-c1nc(CN2C(=O)CN=C(c3ccccc3)c3ccccc32)c(C)o1`
Completion: false (0)

====

Experiment: Acumen qHTS Assay for Inhibitors of the mTORC1 Signaling Pathway in WT MEF Cells: Hit Validation; further: nearly all actives have a fitted effect of over 60% in size
Conditions: Acumen imaging; series mostly up to 37.3 µM
Results filed as inconclusive are left out. Activity calls are given as the source filed them. The call rests on the fitted dose curve; in most records, active means well fitted inhibition curve with a large enough effect; inconclusive means small, poorly fitted or top-dose-only effect; inactive means no such curve, though single readings can be large or run the other way.
Return exactly one item of TRUE for active, FALSE for inactive

SMILES | CLASS NAME
Cc1ccccc1-n1c(/C=C/c2c(C)[nH]c3ccccc23)nc2ccccc2c1=O | TRUE

Prompt: Entry `CCOc1ccc(NC(=O)CSc2oc(-c3ccccc3)nc2S(=O)(=O)c2ccc(Cl)cc2)cc1` : call = ?
Completion: TRUE

Prompt: Further, for `CCN(CC)CCSc1nc2ccccc2c(=O)n1-c1ccc(Cl)cc1` ?
Completion: FALSE
